Numbers sourced from ChEMBL document CHEMBL3885861.

species on record: Rattus norvegicus; assay: Open TG-GATES - Regimen: Single; assay type: toxicity, organism-based, Sprague-Dawley; design: regimen Single, gender Male, age 6 weeks; conditions: in vivo, po, 300 mg/kg, 6 h, tissue Blood, route gavage, dose level Middle
READOUT KIND: Hb (g/dL)

> print(dat)
                                   compound  readout.value
1          C[C@H](CS)C(=O)N1CCC[C@H]1C(=O)O           12.9
2                  Clc1ccccc1CN1CCc2sccc2C1           13.5
3  O=C(O)c1cc(/N=N/c2ccc(S(=O)(=O)Nc3ccccn3)cc2)ccc1O           13.2
4  O=C(O)c1cn(C2CC2)c2cc(N3CCNCC3)c(F)cc2c1=O           12.8
5          CCc1cc(C(N)=S)ccn1 [ETHIONAMIDE]           14.5
